Item-by-item account of IC50
target: Calpain-2 catalytic subunit (Sus scrofa, UniProt P43367); assay: pig calpain II inhibitor potency, dose response, biochemical, fluorogenic peptide substrate (AID 1420); type: functional
Sequence (P43367 whole entry): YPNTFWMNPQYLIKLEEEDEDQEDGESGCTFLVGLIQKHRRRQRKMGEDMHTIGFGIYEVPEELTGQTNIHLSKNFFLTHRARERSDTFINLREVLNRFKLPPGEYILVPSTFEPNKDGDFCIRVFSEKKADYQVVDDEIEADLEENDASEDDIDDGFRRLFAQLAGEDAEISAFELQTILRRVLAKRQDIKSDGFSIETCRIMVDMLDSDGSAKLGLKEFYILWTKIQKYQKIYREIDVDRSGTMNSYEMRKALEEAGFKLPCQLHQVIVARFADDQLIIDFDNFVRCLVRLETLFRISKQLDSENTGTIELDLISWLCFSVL

Solved entries:
INSERT INTO results (molecule, experimental_result) VALUES
  ('CCc1cccc2c(SCC(=O)NCC3CCCO3)nc(-c3ccc(F)cc3)nc12 (stereo not drawn)', '26.2 µM (not active)'),
  ('Clc1ccc2nc(-c3ccccn3)c(Nc3ccc4c(c3)OCO4)n2c1', '0.608 µM (not active)'),
  ('CC(C)c1ccc(/C=C/C2=NNC(=O)CC2)cc1', '14.3 µM (not active)'),
  ('Cc1ccc(-c2csc(NC(=S)NC(=O)c3ccco3)n2)cc1', '4.46 µM (not active)'),
  ('O=C(c1ccc(Oc2ccccc2)cc1)c1nc2c(n1O)CCCC2', '12.9 µM (not active)'),
  ('CCCC1Cc2c(sc(NC(=S)NC(=O)c3ccccc3)c2C#N)CO1 (stereo not drawn)', '31 µM (not active)');

# query: IC50 of entry CCOC(=O)C/C(C)=N\Nc1ccc([N+](=O)[O-])cc1[N+](=O)[O-]
23 µM (not active)

# query: IC50 of entry O=C1NN=C(c2ccc(Cl)cc2)CC1c1cccc(Br)c1 (stereo not drawn)
12.5 µM (not active)

These entries and their values trace back to ChEMBL document CHEMBL1201862.
